- target: Receptor-type tyrosine-protein kinase FLT3 (Homo sapiens)
- Sequence (P36888 whole entry): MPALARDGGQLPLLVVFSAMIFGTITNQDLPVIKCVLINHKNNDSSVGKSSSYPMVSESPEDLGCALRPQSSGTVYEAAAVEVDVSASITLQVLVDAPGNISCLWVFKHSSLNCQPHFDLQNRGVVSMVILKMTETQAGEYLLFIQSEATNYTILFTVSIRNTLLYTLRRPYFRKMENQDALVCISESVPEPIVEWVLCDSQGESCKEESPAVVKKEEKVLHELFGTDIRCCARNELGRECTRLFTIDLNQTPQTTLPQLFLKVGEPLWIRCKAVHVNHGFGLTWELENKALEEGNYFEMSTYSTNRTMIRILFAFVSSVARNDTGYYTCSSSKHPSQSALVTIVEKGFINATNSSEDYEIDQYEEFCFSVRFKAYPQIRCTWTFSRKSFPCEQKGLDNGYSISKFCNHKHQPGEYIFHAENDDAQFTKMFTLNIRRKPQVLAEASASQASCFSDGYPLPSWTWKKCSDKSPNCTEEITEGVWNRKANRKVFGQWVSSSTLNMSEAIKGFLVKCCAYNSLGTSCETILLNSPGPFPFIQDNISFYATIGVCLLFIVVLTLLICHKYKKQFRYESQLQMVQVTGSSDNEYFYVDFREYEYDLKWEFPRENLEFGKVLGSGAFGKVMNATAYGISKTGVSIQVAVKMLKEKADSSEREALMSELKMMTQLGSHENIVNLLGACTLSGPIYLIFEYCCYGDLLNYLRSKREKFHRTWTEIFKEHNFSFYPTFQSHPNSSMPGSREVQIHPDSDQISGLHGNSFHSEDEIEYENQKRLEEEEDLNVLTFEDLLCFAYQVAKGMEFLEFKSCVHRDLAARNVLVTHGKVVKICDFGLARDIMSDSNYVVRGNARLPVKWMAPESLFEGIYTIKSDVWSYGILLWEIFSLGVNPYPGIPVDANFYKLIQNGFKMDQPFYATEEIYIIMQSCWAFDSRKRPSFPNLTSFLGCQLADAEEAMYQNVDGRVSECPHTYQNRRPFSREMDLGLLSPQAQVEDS
pIC50: −log10 of the molar value.

[
  {
    "lineNotation": "Cn1cc(-c2ccc3nnc(Cc4cccc5c(=O)[nH]ccc45)n3n2)cn1",
    "target": "Receptor-type tyrosine-protein kinase FLT3 (Homo sapiens)",
    "pIC50": "< 5.00"
  },
  {
    "lineNotation": "O=c1[nH]ccc2c(Cc3nnc4ccc(-c5ccccc5)nn34)cccc12",
    "target": "Receptor-type tyrosine-protein kinase FLT3 (Homo sapiens)",
    "pIC50": "< 5.00"
  }
]

###

For reference, IC50 measured on High affinity nerve growth factor receptor (Homo sapiens):

[
  {
    "lineNotation": "O=c1[nH]ccc2c(Cc3nnc4ccc(-c5ccccc5)nn34)cccc12",
    "IC50": "> 10 µM"
  },
  {
    "lineNotation": "Cn1cc(-c2ccc3nnc(Cc4cccc5c(=O)[nH]ccc45)n3n2)cn1",
    "IC50": "> 10 µM"
  }
]

###

- experimentalDetails: Clearance in rat at 10 mg/kg, iv
- Assay type: ADME, organism-based
- Design: dose 10 mg/kg, route intravenous
- conditionInfo: in vivo

[
  {
    "lineNotation": "O=c1[nH]ccc2c(Cc3nnc4ccc(-c5ccccc5)nn34)cccc12",
    "clearance, mL/min/kg": 13.3
  }
]

###

- target: Hepatocyte growth factor receptor (Homo sapiens, UniProt P08581)
- Sequence (P08581 whole entry): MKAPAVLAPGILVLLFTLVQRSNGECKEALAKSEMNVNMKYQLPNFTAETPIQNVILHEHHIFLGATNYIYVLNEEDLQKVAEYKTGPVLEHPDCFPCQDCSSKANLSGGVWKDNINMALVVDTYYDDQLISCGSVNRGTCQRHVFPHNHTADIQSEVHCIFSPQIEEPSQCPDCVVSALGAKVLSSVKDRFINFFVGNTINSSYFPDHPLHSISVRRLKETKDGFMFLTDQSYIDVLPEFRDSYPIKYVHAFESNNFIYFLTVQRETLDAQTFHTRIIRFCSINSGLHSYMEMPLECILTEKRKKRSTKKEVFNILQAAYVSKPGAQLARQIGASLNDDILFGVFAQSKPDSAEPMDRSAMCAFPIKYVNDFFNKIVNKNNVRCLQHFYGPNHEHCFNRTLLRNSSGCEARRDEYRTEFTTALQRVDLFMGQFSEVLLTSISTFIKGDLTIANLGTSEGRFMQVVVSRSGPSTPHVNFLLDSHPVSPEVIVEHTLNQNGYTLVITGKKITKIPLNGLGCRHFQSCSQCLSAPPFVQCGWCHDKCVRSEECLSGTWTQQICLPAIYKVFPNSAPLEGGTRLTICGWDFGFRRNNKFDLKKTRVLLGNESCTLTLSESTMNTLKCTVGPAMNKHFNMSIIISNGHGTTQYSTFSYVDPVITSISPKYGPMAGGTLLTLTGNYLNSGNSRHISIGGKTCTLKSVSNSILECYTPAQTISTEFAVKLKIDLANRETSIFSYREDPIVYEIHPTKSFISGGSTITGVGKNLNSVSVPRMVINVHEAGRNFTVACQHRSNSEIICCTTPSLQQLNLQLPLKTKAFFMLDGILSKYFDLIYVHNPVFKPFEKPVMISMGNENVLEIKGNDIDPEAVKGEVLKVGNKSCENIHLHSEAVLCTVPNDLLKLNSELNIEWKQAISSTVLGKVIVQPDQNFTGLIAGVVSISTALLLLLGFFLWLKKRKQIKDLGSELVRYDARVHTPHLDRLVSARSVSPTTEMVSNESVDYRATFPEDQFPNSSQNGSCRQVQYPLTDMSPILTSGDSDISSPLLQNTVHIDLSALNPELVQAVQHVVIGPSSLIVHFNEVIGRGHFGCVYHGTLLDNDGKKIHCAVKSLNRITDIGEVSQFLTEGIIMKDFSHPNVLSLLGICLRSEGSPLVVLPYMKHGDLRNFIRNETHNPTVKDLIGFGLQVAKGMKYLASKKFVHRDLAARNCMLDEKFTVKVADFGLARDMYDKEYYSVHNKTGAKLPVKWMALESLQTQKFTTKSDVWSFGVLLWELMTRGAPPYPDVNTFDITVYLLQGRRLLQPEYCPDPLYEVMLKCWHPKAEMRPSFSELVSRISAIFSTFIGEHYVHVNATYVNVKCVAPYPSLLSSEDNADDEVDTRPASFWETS
- experimentalDetails: Inhibition of recombinant c-met by HTRF assay
// assign 1 if IC50 falls strictly below 10 nM, else -1 (ties count as -1)

[
  {
    "lineNotation": "O=c1[nH]ccc2c(Cc3nnc4ccc(-c5csc6ccccc56)nn34)cccc12",
    "labelClass": -1
  },
  {
    "lineNotation": "O=c1[nH]ccc2c(Cc3nnc4ccc(N5CCCCC5)nn34)cccc12",
    "labelClass": -1
  },
  {
    "lineNotation": "O=c1[nH]ccc2c(Cc3nnc4ccc(-c5ccccc5)nn34)cccc12",
    "labelClass": 1
  },
  {
    "lineNotation": "CCn1ccc2c(Cc3nnc4ccc(-c5cccc(F)c5)nn34)cccc2c1=O",
    "labelClass": -1
  },
  {
    "lineNotation": "O=c1[nH]ccc2c(Cc3nnc4ccc(-c5cn[nH]c5)nn34)cccc12",
    "labelClass": 1
  },
  {
    "lineNotation": "N#Cc1cccc(-c2ccc3nnc(Cc4cccc5c(=O)[nH]ccc45)n3n2)c1",
    "labelClass": 1
  },
  {
    "lineNotation": "O=c1[nH]ccc2c(Cc3nnc4ccc(-c5cccc(O)c5)nn34)cccc12",
    "labelClass": 1
  },
  {
    "lineNotation": "O=c1[nH]ccc2c(Cc3nnc4ccc(-c5cccc([N+](=O)[O-])c5)nn34)cccc12",
    "labelClass": 1
  },
  {
    "lineNotation": "Cn1ccc2c(Cc3nnc4ccc(-c5cccc(F)c5)nn34)cccc2c1=O",
    "labelClass": -1
  },
  {
    "lineNotation": "Cc1ccccc1-c1ccc2nnc(Cc3cccc4c(=O)[nH]ccc34)n2n1",
    "labelClass": -1
  }
]

###

- target: Macrophage-stimulating protein receptor (Homo sapiens)
- Sequence (Q04912 25-304 limits assumed): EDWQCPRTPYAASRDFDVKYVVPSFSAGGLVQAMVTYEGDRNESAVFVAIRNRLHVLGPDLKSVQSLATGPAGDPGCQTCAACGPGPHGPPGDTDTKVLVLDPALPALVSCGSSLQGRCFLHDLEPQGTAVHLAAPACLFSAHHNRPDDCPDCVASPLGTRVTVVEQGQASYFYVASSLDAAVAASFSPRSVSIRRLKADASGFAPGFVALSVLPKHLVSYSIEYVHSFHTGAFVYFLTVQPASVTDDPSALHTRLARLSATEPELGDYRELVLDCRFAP
- Sequence (Q04912 310-1400 limits assumed): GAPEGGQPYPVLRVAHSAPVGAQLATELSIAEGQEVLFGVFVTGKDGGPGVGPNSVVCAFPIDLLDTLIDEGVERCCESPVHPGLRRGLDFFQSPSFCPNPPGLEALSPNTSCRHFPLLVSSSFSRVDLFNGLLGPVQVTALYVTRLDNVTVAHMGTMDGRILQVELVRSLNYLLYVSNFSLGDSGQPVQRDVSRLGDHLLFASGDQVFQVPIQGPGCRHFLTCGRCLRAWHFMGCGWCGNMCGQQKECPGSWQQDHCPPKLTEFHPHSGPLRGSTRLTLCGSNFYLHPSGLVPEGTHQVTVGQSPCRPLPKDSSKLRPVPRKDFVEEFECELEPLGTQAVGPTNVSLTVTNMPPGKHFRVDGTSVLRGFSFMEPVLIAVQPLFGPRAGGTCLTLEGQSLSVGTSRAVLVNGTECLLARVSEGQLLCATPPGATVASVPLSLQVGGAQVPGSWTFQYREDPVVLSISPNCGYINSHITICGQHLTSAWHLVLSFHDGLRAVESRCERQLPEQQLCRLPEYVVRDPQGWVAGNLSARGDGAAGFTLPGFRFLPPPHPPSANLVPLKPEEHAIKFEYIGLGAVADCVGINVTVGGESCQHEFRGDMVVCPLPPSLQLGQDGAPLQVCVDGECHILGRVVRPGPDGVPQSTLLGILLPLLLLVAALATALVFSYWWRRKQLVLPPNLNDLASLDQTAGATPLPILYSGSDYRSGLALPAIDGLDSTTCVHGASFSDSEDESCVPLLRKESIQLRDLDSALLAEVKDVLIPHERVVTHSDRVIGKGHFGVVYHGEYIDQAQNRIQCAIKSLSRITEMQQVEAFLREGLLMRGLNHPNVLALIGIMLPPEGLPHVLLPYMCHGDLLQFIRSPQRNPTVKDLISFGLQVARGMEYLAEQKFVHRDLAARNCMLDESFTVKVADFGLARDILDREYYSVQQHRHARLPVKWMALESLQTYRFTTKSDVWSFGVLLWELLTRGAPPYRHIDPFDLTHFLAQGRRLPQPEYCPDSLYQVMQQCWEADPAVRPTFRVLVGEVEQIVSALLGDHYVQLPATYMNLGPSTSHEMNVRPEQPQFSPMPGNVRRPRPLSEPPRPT
pIC50: −log10 of the molar value.

[
  {
    "lineNotation": "Cn1cc(-c2ccc3nnc(Cc4cccc5c(=O)[nH]ccc45)n3n2)cn1",
    "pIC50": "< 5.00"
  }
]
